Attribute: Kd
Target: S1-biotin(ACRO)
Experiment: BLI
metric: Kd (nM)

INSERT INTO assay_data (binder, lt_gt_eq, readout_value) VALUES
  ('Ab 15 (Fc fusion) VH: QVQLVQSGGGLVKPGRSLRLSCTASGFTFGDYAMSWFRQAPGKGLEWVGFIRSKAYGGTTGYAASVKGRFTISRDDSKSIAYLQMNSLKTEDTAVYYCTTADDDMDVWGKGTTVTVSS VL: NFMLTQPHSVSESPGKTVTISCTRSSGTIASNYVQWYQQRPGSAPTTVIYEDNQRPSGVPDRFSGSIDRSSNSASLTISGLTPDDEADYYCQSYDTSNHYVFGTGTKVTVL', '=', 0.033),
  ('Ab 23 (Fc fusion) VH: EVQLVQSGAEVKKPGSSVKVSCRSSGGTFSTYGITWVRQAPGQGLEWMGRIIPSLGIPNYAQKFQGRVTITADTSVSTAWMELSSLESDDTAIYYCARENIDLATNDFWGQGTLVTVSS VL: QSALTQPPSASGSPGQSVTISCTGTSRDIGAYGYVSWYQQVPGKAPKLIIYEVRNRPSGVSSRFSGSKSGNTASLTISGLQAEDEADYYCSSYTSSSTLDVVFGGGTKLTVL', '=', 0.338),
  ('Ab 25 (Fc fusion) VH: QVQLVQSGGGLVQPGGSLRLSCAASGFTFSSYWMSWVRQAPGKGLEWVANIKQDGSEKYYVDSVKGRFTISRDNAKNSLYLQMNSLRAEDTAVYYCARGFYYYGAFDIWGQGTTVTVSS VL: NFMLTQPHSVSESPGKTVTISCTGSSGSIASNYVQWYQQRPGSAPTTVIYEDNQRPSGVPDRFSGSIGSSSNSASLTISGLKTEDEADYYCQSYDSSNHWVFGGGTKLTVL', '=', 10.1),
  ('Ab 27 (Fc fusion) VH: QVQLVQSGTEVKKPGASVKVSCKASGYSFTGSHLHWVRQAPGQGLEWMGWINPDSGVINYAQKFQGRVTLTRDTSISTAYMELSGLRSDDTAVYYCARDKAIGYVWALDYWGQGTLVTVSS VL: QSALTQPPSVSGSPGQSVTISCTGTSSDVGTYNRVSWYQQPPGKAPKLMIYEVSNRPSGVSNRFSGSKSGNTASLTISGLQAEDEADYYCSSYTRTFTYVFGTGTKVTVL', '<', 0.001);
